System Name: catalytic domain of human Bub1 (amino acids 704-1085) (Homo sapiens, UniProt O43683)
Construct: catalytic domain of human Bub1 (amino acids 704-1085); His6 (N); made in house; host or cells: Hi5 insect cells
Sequence (O43683 704-1085): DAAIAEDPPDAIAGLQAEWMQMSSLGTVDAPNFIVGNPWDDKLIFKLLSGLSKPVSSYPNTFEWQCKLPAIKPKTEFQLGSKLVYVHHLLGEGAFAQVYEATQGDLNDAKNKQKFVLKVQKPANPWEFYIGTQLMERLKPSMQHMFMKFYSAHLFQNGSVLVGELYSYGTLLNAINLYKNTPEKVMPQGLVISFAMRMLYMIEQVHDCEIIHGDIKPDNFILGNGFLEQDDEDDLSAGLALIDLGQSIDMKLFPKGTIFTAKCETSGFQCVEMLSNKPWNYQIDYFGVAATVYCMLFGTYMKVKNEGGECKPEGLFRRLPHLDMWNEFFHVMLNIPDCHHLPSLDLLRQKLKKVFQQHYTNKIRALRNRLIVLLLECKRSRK
Measurement Protocol: Bub1 kinase assay (TR-FRET)
Assay type: biochemical
Condition Info: Biological Assay 1: Bub1 kinase assay median IC50, TR-FRET, ATP 10 μM, peptide substrate 1 μM, 60 min at 22° C.
pIC50: −log10 of the molar value.
Binary call on pIC50: label 1 from 8 upward, label 0 beneath that.

INSERT INTO assay_data (compound_structure, system_name, class) VALUES
  ('CCOC(=O)c1cnccc1Nc1nc(-c2nn(Cc3c(F)cc(OCC)cc3F)c(C3CC3)c2C)ncc1OC', 'catalytic domain of human Bub1 (amino acids 704-1085) (Homo sapiens, UniProt O43683)', 'label 0');

Then there is this molecule:
Q) Given the entry `CCOc1cc(F)c(Cn2nc(-c3ncc(OCC4(CO)COC4)c(Nc4ccncc4)n3)c(C)c2C2CC2)c(F)c1` , answer whether its pIC50 meets or surpasses 8.
A) label 1

* * *

Reported pIC50 values follow for various molecules
System: Caco2 cell line
Measurement Protocol: Proliferation assay (Caco2 cell line)
Condition Info: Homo sapiens, Caco-2, 96 h, read-out: Biological Assay 2: Proliferation assay (Caco2 cell line) median IC50
Lab note: report pIC50 as minus log10 of the concentration in molar units, number only.

Please review the following examples before continuing.
INSERT INTO measurements (molecule, measured) VALUES
  ('CCOc1cc(F)c(Cn2nc(-c3ncc(OCCCS(C)(=O)=O)c(Nc4ccncc4)n3)c(C)c2C2CC2)c(F)c1 [Example 2-3-10]', 5.85),
  ('CCOc1cc(F)c(Cn2nc(-c3ncc(OCCN(C)C)c(Nc4ccncc4)n3)c(C)c2C2CC2)c(F)c1 [Example 2-3-1]', 5.71);

Next molecule, pIC50 to be filled in.
Q) Fill in the blank: the reported pIC50 of CCOc1cc(F)c(Cn2nc(-c3ncc(OC)c(Nc4ccncc4)n3)c(C)c2C2CC2)c(F)c1 [Example 2-1-12] is ____.
A) 5.67

* * *

System Name: catalytic domain of human Bub1 (amino acids 704-1085) (Homo sapiens)
Construct: catalytic domain of human Bub1 (amino acids 704-1085); His6 (N); made in house; host or cells: Hi5 insect cells
Measurement Protocol: Bub1 kinase assay (TR-FRET)
Assay type: biochemical
Condition Info: Biological Assay 1: Bub1 kinase assay median IC50, TR-FRET, ATP 10 μM, peptide substrate 1 μM, 60 min at 22° C.
Reported pIC50 values follow for various compounds
Lab note: report pIC50 as minus log10 of the concentration in molar units, number only.

INSERT INTO assay_data (compound, system_name, assay_endpoint, measured) VALUES
  ('CCOc1cc(F)c(Cn2nc(-c3ncc(OCS(N)(=O)=O)c(Nc4ccncc4)n3)c(C)c2C2CC2)c(F)c1 [Example 2-3-5]', 'catalytic domain of human Bub1 (amino acids 704-1085) (Homo sapiens)', 'pIC50', 8.26),
  ('CCOc1cc(F)c(Cn2nc(-c3ncc(OC)c(Nc4ccncc4C#N)n3)c(C)c2C2CC2)c(F)c1 [Example 2-6-4]', 'catalytic domain of human Bub1 (amino acids 704-1085) (Homo sapiens)', 'pIC50', 7.31);

Next compound, pIC50 to be filled in.
Q) Fill in the blank: the reported pIC50 of CCOc1cc(F)c(Cn2nc(-c3nccc(Nc4ccncc4C(N)=O)n3)c(C)c2C2CC2)c(F)c1 [Example 2-4-3] is ____.
A) 8.03

Attribution: patent US9643953B2
